Could you please report measured Km for the items listed next?
# Organism: Homo sapiens
# protocol: Binding affinity to human Calmodulin M124C mutant assessed as extrinsic fluorescence quenching in phosphate buffer at pH 5.1 by mBBr fluorescence assay
The answer consists of two parts: a number and, after it, its unit.

Field: example entries. Status: answers known.
{"smilesRecord": "COc1cc(O)cc(C(=O)/C=C/c2ccc(OC)c(O)c2)c1", "Km": "3.89 µM"}
{"smilesRecord": "COc1cc(Cc2cccc(OC)c2O)cc(OC)c1", "Km": "33.8 µM"}
{"smilesRecord": "COc1cc(O)cc(CCc2ccc(O)c(OC)c2)c1", "Km": "60.8 µM"}
{"smilesRecord": "Oc1cccc(CCc2ccc3c(c2)OCO3)c1", "Km": "63.8 µM"}
{"smilesRecord": "COc1cc(O)cc(CCCc2ccc(O)c(OC)c2)c1", "Km": "54.3 µM"}
{"smilesRecord": "COc1cc(O)cc(CCc2ccc(N(C)C)cc2)c1", "Km": "12 µM"}
{"smilesRecord": "COc1ccc(CCc2cc(O)cc(OC)c2)cc1", "Km": "80 µM"}
{"smilesRecord": "COc1ccc(CCc2cc(OC)cc(OC)c2)cc1", "Km": "21.8 µM"}

// batch mode: one Km value per listed entry
1. COc1cc(Cc2ccc(O)c(OC)c2)cc(OC)c1
2. CCOc1ccc(CCc2cccc(O)c2)cc1OC
3. COc1cc(O)cc(C(=O)/C=C/c2ccc(O)c(OC)c2)c1
4. COc1cc(CCc2ccc(N(C)C)cc2)cc(OC)c1
5. COc1cc(O)cc(CCc2ccc3c(c2)OCO3)c1
6. Oc1cccc(CCCc2ccc3c(c2)OCO3)c1
7. CCOc1ccc(CCc2cc(OC)cc(OC)c2)cc1OC
8. COc1ccc(/C=C/C(=O)c2ccc(O)cc2)cc1

Solution:
1: 33.1 µM; 2: 58.1 µM; 3: 5.31 µM; 4: 10 µM; 5: 45.5 µM; 6: 14.2 µM; 7: 9.88 µM; 8: 10.3 µM

Quick one: give me Km for each item below, same order please.
1. COc1ccc(CCCc2ccc(O)cc2)cc1
2. CCOc1ccc(CCc2cc(O)cc(OC)c2)cc1OC

Solution:
1. 8.7 µM
2. 25.3 µM
